Origin of measurements: ChEMBL document CHEMBL1123701

Here the recorded log10(MIC) is given for each entry.
# System: Cryptococcus neoformans
# Run Description: Antifungal activity against Cryptococcus neoformans Cr-1 strain
# Assay type: functional
A value of 2 here means MIC of 100 in µg/mL, since values are log10.

IC#CCn1nnnc1C1CC1 = 1.10
Fc1ccc(-c2nnn(CC#CI)n2)cc1 = -0.11
Clc1ccccc1-c1nnn(CC#CI)n1 = 0.19
CCCCCCCc1nnnn1CC#CI = 0.19
N#Cc1ccc(-c2nnn(CC#CI)n2)cc1 = 1.70
IC(I)=C(I)Cn1nnc(C2CC2)n1 = 0.50
CC(=O)c1c(C)cn(CC#CI)c1C = 1.40
CC(C)(C)c1nnnn1CC#CI = 1.40
Cc1cc(C)n(CC#CI)n1 = 0.50
CC(C)Cc1nnn(CC#CI)n1 = 0.50

What value of measured log10(MIC) is listed for "O=[N+]([O-])c1c(Cl)cccc1-c1cn(CC#CI)cc1Cl" ?
1.40

So what does the record say about log10(MIC) for "O=[N+]([O-])c1c(Cl)c(Cl)n(CC#CI)c1Cc1cc(Cl)cc(Cl)c1O" ?
0.50

Given the molecule "COC(=O)c1cccn1CC(I)=C(I)I" , what is its reported log10(MIC)?
0.50

# lookup: log10(MIC) of "NC(=O)c1ccc(-c2nnn(CC#CI)n2)cc1"
1.10

Look at this molecule and give its reported log10(MIC). "O=[N+]([O-])c1cn(CC(I)=C(I)I)cn1"
0.80

// lookup log10(MIC) for "CCCCCc1nnnn1CC#CI"
0.50

What does the record list as log10(MIC) for "O=[N+]([O-])c1cn(CC(I)=C(I)I)c(Cl)c1Cl" ?
-0.70

Any idea what log10(MIC) was measured for "IC#CCn1nccn1" ?
0.19

Need log10(MIC), item "IC(I)=C(I)Cn1cnnn1"
0.50

Which log10(MIC) is reported for this molecule? "O=[N+]([O-])c1ccc(-c2nnn(CC#CI)n2)cc1"
0.50

What log10(MIC) value was documented for this molecule, "IC#CCn1nnc(Cc2ccccc2)n1" ?
0.80

====

The following molecules are shown together with reported log10 of MIC values.
# System: Trichophyton benhamiae
# Run Description: Antifungal activity towards Trichophyton mentagrophytes 530324 strain
# Type: functional, Arthroderma benhamiae
Please note: log10 values; quantity MIC; unit µg/mL.

CCCCCc1nnn(CC#CI)n1 = -1.00

Find the measured log10 of MIC: item "IC#CCn1nnc(-c2ccc(C3N=NN=N3)cc2)n1" , target or system Trichophyton benhamiae.
0.19

Report log10 of MIC for "COc1ccc(-c2nnnn2CC#CI)cc1" tested on Trichophyton benhamiae.
-1.00

Tell me reported log10 of MIC for "COc1ccc(-c2nnn(CC#CI)n2)cc1" , tested with Trichophyton benhamiae.
-1.00

Hi! What's the reported log10 of MIC for "O=C(c1ccccc1)c1cccn1CC(I)=C(I)I" on Trichophyton benhamiae?
0.19

====

# Test system: Cryptococcus neoformans
# Run Description: Antifungal activity against Cryptococcus neoformans Cr-1 strain
# Type: functional
Value Kind: log10(MIC) (log10 of the value in µg/mL)
Quick note: numbers are log10 of MIC, with µg/mL as the unit.

See these solved cases before continuing.
IC#CCn1ccnc1 = 0.80
CCOCCc1nnnn1CC(I)=C(I)I = 0.80
O=[N+]([O-])c1c(Cl)cccc1-c1cn(CC(I)=C(I)I)cc1Cl = 1.10
O=[N+]([O-])c1cn(CC#CI)cn1 = -1.00
IC#CCn1nnc(C2CC2)n1 = 0.19
Clc1cc(Cl)c(OCC#CI)cc1Cl = 0.19
IC#CCn1cnnn1 = -0.11

Consider the compound "FC(F)(F)c1cccc(-c2nnn(CC#CI)n2)c1" and give its measured log10(MIC).
0.19

====

Recorded measurements of MIC, one per entry
# System: Trichophyton benhamiae
# Run Description: Antifungal activity towards Trichophyton mentagrophytes 530324 strain
# Assay type: functional, Arthroderma benhamiae
Just so you know, I need the unit written after the number.

COC(=O)c1cccn1CC(I)=C(I)I = 0.78 µg/mL
Cc1nnnn1CC(I)=C(I)I = 0.78 µg/mL
IC(I)=C(I)Cn1cncn1 = 0.78 µg/mL
CN(C)c1ccc(-c2nnn(CC#CI)n2)cc1 = 0.78 µg/mL

Fill in: MIC of "IC#CCn1nnnc1Cc1ccccc1" is ___
0.78 µg/mL

====

# System: Trichophyton benhamiae
# Run Description: Antifungal activity towards Trichophyton mentagrophytes 530324 strain
# Format: functional, Arthroderma benhamiae
Value Kind: MIC (µg/mL)
I only need the number, in µg/mL, no unit after it.

Below: 3 compounds and their reported MIC.
CCCCCc1nnnn1CC#CI = 0.2
COc1ccc(-c2nnnn2CC(I)=C(I)I)cc1 = 0.1
Clc1ccccc1-c1nnn(CC#CI)n1 = 0.1

If you can, please state the reported MIC value of "FC(F)(F)c1cccc(-c2nnn(CC#CI)n2)c1" .
0.1

Find the recorded MIC belonging to "IC#CCn1ccnn1" and report it.
0.78

Please give the measured MIC for this compound: "Clc1ccccc1C(c1ccccc1)(c1ccccc1)n1ccnc1"
0.39

====

Below, each entry is listed with its recorded MIC.
# Test system: Cryptococcus neoformans
# Run Description: Antifungal activity against Cryptococcus neoformans Cr-1 strain
# Assay type: functional

Example entries and their recorded answers appear below.
IC(I)=C(I)Cn1nnnc1Cc1ccccc1 = > 25 µg/mL
Fc1ccc(-c2nnn(CC(I)=C(I)I)n2)cc1 = > 100 µg/mL

Which MIC is listed for "CC(C)(C)c1nnn(CC(I)=C(I)I)n1" ?
> 25 µg/mL

What does the data say about its MIC? Entry: "IC#CCn1nnc(-c2ccc(C3N=NN=N3)cc2)n1"
> 100 µg/mL

====

# Tested on: Trichophyton benhamiae
# Run Description: Antifungal activity towards Trichophyton mentagrophytes 530324 strain
# Type: functional, Arthroderma benhamiae
Value Kind: MIC (µg/mL)
Kindly provide the numeric value in µg/mL only, without the unit symbol.

CC(C)c1nnn(CC#CI)n1 = 0.78
O=[N+]([O-])c1c[nH]c(Cl)c1Cl = 6.25
COC(=O)c1cccn1CC#CI = 1.56
Cc1nnn(CC(I)=C(I)I)n1 = 0.2
O=[N+]([O-])c1nccn1CC(I)=C(I)I = 0.78
N#Cc1ccc(-c2nnn(CC#CI)n2)cc1 = 3.13
CC(C)Cc1nnnn1CC#CI = 1.56

I am curious: what MIC value has been reported for "CCCc1nnnn1CC(I)=C(I)I" ?
0.1
